Taken from ChEMBL document CHEMBL2074325.

target or system: MRP5 (ABCC5) (Homo sapiens)
protocol: TP_TRANSPORTER: inhibition of cGMP uptake (cGMP: 5 uM, Fluorescein diacetate: 50 uM) in membrane vesicles from MRP5-expressing V79 cells
Format: functional, cell membranes, Membrane vesicle
Set-up: scale not given: the % may be the effect or the level left
test parameters: hamster, probe cGMP (5 uM), read-out: Activity
quantity measured: activity at 50 µM (%)
Numbers only, in %.

Enquiry: Requested read-out: activity at 50 µM. Entry: CC(=O)Oc1ccc2c(c1)Oc1cc(OC(C)=O)ccc1C21OC(=O)c2ccccc21 [FLUORESCEIN DIACETATE]
Return: 49.2

###

target or system: MRP5 (ABCC5) (Homo sapiens, UniProt O15440)
Sequence (O15440 whole entry): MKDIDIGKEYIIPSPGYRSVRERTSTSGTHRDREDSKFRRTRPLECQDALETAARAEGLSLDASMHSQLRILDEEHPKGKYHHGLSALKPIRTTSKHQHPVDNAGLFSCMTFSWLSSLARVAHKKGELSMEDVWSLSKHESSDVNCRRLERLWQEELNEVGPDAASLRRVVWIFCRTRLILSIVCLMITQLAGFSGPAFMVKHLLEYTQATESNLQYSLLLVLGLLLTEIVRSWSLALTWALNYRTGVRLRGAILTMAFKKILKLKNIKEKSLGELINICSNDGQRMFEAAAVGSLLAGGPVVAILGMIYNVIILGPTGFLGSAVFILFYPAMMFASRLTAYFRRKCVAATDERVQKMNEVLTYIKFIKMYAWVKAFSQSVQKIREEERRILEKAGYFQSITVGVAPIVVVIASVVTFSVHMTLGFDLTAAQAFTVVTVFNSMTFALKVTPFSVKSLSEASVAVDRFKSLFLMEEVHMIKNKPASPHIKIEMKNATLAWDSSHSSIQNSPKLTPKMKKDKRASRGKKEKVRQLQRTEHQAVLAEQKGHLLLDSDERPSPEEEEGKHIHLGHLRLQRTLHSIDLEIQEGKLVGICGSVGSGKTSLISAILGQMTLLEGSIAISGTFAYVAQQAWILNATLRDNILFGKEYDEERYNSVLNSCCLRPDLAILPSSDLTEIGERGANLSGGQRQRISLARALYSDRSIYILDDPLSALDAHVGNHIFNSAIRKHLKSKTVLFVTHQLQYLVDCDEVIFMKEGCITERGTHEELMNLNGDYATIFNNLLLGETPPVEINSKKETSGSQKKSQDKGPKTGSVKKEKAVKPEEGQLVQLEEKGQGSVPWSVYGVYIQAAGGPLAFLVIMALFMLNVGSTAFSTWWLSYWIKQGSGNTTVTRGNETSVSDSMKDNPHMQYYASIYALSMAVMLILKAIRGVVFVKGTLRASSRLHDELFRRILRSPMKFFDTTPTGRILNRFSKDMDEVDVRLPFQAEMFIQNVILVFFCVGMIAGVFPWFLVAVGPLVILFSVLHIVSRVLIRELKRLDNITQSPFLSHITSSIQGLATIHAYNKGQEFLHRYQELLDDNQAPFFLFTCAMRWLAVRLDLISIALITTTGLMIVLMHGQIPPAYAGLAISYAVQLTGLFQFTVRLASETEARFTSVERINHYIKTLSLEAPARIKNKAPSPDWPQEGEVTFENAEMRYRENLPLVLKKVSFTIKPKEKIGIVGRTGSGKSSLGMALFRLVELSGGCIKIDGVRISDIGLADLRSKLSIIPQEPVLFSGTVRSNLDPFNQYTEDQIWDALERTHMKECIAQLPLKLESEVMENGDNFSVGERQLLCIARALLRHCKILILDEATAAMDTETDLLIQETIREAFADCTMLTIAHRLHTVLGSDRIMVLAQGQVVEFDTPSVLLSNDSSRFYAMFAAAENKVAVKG
protocol: TP_TRANSPORTER: inhibition of cGMP uptake (cGMP: 5 uM, Sildenafil: 1 uM) in membrane vesicles from MRP5-expressing V79 cells
Assay type: functional, cell membranes, Membrane vesicle
Design: scale not given: the % may be the effect or the level left
test parameters: hamster, probe cGMP (5 uM), read-out: Activity
quantity measured: activity at 1 µM (%)
One number for each entry, in %.

Enquiry: What value of activity at 1 µM on MRP5 (ABCC5) (Homo sapiens, UniProt O15440) does CCCc1nn(C)c2c(=O)[nH]c(-c3cc(S(=O)(=O)N4CCN(C)CC4)ccc3OCC)nc12 have?
Return: 22

###

target or system: MRP5 (ABCC5) (Homo sapiens)
protocol: TP_TRANSPORTER: inhibition of cGMP uptake (cGMP: 5 uM, Zaprinast: 10 uM) in membrane vesicles from MRP5-expressing V79 cells
Assay type: functional, cell membranes, Membrane vesicle
Design: scale not given: the % may be the effect or the level left
test parameters: hamster, probe cGMP (5 uM), read-out: Activity
quantity measured: activity at 10 µM (%)
Numbers only, in %.

Enquiry: What value of activity at 10 µM on MRP5 (ABCC5) (Homo sapiens) does CCCOc1ccccc1-c1nc2nn[nH]c2c(=O)[nH]1 have?
Return: 41
